Give measured IC50 for each item. Keep answers brief.
measured.on: PIK3CA (human)

// for each compound below, give its IC50
1. CC(C)n1nc(-c2ccc3nc(N)sc3c2)c2c(N)ncnc21
2. CCC(=O)Nc1nc2ccc(-c3nn(C(C)C)c4ncnc(N)c34)cc2s1
3. CC(=O)Nc1nc2ccc(-c3nn(C)c4ncnc(N)c34)cc2s1
4. CC(=O)Nc1nc2ccc(-c3nn(C4CCC4)c4ncnc(N)c34)cc2s1
5. CNC(=O)Nc1nc2ccc(-c3cn(C(C)C)c4ncnc(N)c34)cc2s1
6. CC(=O)Nc1nc2ccc(-c3nn(C4CCOCC4)c4ncnc(N)c34)cc2s1
7. CC(=O)Nc1nc2ccc(-c3nn(C(C)C)c4ncnc(N)c34)cc2s1
8. CNC(=O)Nc1nc2ccc(-c3nn(C(C)C)c4ncnc(N)c34)cc2s1

A.
0.1 to 0.5 µM
0.1 to 0.5 µM
0.5 to 1 µM
0.05 to 0.1 µM
≤ 0.05 µM
0.1 to 0.5 µM
0.1 to 0.5 µM
≤ 0.05 µM

// for each compound below, give its IC50
1. CNC(=O)Nc1nc2ccc(-c3cn(C4CCN(C(C)=O)CC4)c4ncnc(N)c34)cc2s1
2. CNC(=O)Nc1nc2ccc(-c3cn(C4CCOCC4)c4ncnc(N)c34)cc2s1

A.
1: ≤ 0.05 µM; 2: ≤ 0.05 µM

---

measured.on: PIK3CD (Human) (UniProt O00329)
Sequence (O00329 whole entry, looked up): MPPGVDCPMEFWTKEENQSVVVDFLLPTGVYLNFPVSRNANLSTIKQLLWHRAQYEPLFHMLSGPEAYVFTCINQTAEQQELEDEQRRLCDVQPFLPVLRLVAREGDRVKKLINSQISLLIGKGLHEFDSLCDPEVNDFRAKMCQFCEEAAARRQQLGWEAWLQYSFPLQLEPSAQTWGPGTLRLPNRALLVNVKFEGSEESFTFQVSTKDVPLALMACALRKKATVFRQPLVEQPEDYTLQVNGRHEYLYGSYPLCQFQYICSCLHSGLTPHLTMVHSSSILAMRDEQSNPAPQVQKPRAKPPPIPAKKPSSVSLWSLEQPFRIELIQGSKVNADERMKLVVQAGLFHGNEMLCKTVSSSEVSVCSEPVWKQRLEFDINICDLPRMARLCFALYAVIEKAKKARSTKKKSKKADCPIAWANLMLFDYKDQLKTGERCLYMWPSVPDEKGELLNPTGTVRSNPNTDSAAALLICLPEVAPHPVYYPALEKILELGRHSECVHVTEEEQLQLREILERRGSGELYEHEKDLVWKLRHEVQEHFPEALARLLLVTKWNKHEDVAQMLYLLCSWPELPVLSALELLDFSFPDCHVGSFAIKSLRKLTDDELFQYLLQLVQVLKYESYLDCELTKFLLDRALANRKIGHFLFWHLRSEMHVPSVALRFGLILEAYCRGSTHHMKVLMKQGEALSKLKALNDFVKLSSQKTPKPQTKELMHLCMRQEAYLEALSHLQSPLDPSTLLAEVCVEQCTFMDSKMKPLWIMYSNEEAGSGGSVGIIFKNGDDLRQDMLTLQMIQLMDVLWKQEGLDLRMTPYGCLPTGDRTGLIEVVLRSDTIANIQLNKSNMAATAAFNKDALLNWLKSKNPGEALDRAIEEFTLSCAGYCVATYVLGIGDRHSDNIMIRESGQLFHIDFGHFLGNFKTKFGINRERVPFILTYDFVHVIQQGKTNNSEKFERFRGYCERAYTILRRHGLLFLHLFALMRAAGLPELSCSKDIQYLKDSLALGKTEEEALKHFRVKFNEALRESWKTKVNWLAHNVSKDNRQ
measurement.notes: Enzyme Assay
Give measured IC50 for each item. Keep answers brief.

// for each molecule below, give its IC50
1. CC(C)n1nc(-c2cc3cc(O)cc(Cl)c3[nH]2)c2c(N)ncnc21
2. CC(C)n1nc(-c2cc3cc(O)cc(F)c3[nH]2)c2c(N)ncnc21
3. CNC(=O)Nc1nc2ccc(-c3cn(C4CCOCC4)c4ncnc(N)c34)cc2s1
4. CNC(=O)Nc1nc2ccc(-c3nn(C(C)C)c4ncnc(N)c34)cc2s1

A.
1. 25 to 50 nM
2. 50 to 100 nM
3. ≤ 50 nM
4. ≤ 50 nM

// for each molecule below, give its IC50
1. CCn1nc(-c2ccc3nc(NC(C)=O)sc3c2)c2c(N)ncnc21
2. CC(=O)Nc1nc2ccc(-c3nn(C4CCCC4)c4ncnc(N)c34)cc2s1
3. CC(C)n1nc(-c2cc3ccc(O)cc3[nH]2)c2c(N)ncnc21
4. CC(=O)Nc1nc2ccc(-c3nn(C4CCOCC4)c4ncnc(N)c34)cc2s1

A.
["≤ 50 nM", "≤ 50 nM", "100 to 500 nM", "≤ 50 nM"]

// for each molecule below, give its IC50
1. CC(=O)Nc1nc2ccc(-c3nn(C4CCC4)c4ncnc(N)c34)cc2s1
2. CC(=O)Nc1nc2ccc(-c3nn(C(C)C)c4ncnc(N)c34)cc2s1
3. CCNc1nc2ccc(-c3nn(C(C)C)c4ncnc(N)c34)cc2s1
4. CNC(=O)Nc1nc2ccc(-c3cn(C(C)C)c4ncnc(N)c34)cc2s1

A.
50 to 100 nM
≤ 50 nM
500 to 1000 nM
≤ 50 nM

---

measured.on: PIK3CB (Human) (UniProt P42338)
Sequence (P42338 whole entry, looked up): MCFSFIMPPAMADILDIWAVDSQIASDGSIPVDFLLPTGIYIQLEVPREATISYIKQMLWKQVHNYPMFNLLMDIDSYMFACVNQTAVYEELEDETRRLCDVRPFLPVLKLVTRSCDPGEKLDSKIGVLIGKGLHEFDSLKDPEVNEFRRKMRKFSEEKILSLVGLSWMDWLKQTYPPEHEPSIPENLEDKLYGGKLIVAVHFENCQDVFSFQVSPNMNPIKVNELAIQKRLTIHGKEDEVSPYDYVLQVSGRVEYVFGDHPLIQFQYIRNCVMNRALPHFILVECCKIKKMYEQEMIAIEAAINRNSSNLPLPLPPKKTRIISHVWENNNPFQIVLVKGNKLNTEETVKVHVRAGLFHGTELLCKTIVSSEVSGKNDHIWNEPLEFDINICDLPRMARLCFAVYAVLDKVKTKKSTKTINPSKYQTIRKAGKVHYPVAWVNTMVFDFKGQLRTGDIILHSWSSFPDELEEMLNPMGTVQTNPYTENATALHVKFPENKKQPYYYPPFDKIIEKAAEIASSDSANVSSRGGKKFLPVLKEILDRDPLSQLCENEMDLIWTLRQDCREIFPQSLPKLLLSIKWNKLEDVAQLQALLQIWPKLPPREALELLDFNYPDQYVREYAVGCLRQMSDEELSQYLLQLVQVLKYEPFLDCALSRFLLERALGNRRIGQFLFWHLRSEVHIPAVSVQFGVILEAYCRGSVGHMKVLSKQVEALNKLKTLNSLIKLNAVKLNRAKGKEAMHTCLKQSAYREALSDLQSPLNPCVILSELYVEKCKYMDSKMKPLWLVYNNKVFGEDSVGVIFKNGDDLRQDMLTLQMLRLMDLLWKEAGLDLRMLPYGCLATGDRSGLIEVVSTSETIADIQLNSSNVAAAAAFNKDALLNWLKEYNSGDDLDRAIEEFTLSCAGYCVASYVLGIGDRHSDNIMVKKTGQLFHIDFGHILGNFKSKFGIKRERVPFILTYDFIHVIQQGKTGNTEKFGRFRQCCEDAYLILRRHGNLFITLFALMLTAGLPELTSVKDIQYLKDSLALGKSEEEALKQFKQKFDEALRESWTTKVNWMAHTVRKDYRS
experimental.readout: IC50

Q. Item under review: CNC(=O)Nc1nc2ccc(-c3cn(C(C)C)c4ncnc(N)c34)cc2s1 . Reported IC50?
A. ≤ 50 nM

---

Give measured IC50 for each item. Keep answers brief.
measured.on: PIK3CG (human) (UniProt P48736)
Sequence (P48736 whole entry, looked up): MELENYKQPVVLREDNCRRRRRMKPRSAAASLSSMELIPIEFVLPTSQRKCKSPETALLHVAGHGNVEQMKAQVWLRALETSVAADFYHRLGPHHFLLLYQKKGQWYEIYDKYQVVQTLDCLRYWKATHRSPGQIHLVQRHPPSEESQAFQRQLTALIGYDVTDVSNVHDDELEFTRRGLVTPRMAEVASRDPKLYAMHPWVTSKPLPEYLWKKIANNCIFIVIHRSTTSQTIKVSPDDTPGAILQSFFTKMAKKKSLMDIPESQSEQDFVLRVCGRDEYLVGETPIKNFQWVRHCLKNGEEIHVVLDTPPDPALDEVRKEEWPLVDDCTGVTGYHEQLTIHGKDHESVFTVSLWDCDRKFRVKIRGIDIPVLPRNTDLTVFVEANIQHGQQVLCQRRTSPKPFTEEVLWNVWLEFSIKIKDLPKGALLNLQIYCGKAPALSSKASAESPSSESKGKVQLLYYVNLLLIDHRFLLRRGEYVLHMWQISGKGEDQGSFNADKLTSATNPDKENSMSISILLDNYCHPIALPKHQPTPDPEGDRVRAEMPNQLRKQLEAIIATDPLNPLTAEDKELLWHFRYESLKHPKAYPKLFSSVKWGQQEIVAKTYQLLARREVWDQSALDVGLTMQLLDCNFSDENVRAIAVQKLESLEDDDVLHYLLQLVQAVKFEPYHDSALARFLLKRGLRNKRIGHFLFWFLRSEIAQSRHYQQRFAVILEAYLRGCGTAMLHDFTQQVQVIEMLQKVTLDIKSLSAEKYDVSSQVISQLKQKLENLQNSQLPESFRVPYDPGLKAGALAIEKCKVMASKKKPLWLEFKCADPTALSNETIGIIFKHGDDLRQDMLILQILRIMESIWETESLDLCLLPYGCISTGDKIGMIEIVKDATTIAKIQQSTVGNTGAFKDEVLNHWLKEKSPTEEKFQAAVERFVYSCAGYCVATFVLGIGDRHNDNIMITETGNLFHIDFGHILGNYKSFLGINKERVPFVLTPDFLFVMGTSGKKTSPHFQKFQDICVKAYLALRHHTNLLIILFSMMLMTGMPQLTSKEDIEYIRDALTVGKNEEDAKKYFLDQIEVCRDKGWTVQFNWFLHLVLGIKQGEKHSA

Q. Item under review: CC(=O)Nc1nc2ccc(-c3nn(C(C)C)c4ncnc(N)c34)cc2s1 . Reported IC50?
A. ≤ 50 nM

Q. Item under review: CNC(=O)Nc1nc2ccc(-c3cn(C4CCN(C(C)=O)CC4)c4ncnc(N)c34)cc2s1 . Reported IC50?
A. ≤ 50 nM

Q. Item under review: CC(=O)Nc1nc2ccc(-c3nn(C4CCC4)c4ncnc(N)c34)cc2s1 . Reported IC50?
A. ≤ 50 nM

Q. Item under review: CC(=O)Nc1nc2ccc(-c3nn(C4CCOCC4)c4ncnc(N)c34)cc2s1 . Reported IC50?
A. ≤ 50 nM

// for each compound below, give its IC50
1. CCn1nc(-c2ccc3nc(NC(C)=O)sc3c2)c2c(N)ncnc21
2. CCNc1nc2ccc(-c3nn(C(C)C)c4ncnc(N)c34)cc2s1
3. CC(C)n1nc(-c2cc3cc(O)cc(F)c3[nH]2)c2c(N)ncnc21
4. CC(C)n1nc(-c2cc3cccc(O)c3[nH]2)c2c(N)ncnc21
5. CC(C)n1nc(-c2ccc3nc(N)sc3c2)c2c(N)ncnc21

A.
1. ≤ 50 nM
2. 100 to 500 nM
3. 100 to 500 nM
4. 100 to 500 nM
5. ≤ 50 nM

// for each compound below, give its IC50
1. CC(=O)Nc1nc2ccc(-c3nn(C4CCCC4)c4ncnc(N)c34)cc2s1
2. CNC(=O)Nc1nc2ccc(-c3cn(C(C)C)c4ncnc(N)c34)cc2s1

A.
≤ 50 nM
≤ 50 nM
